Cited source: the supplement of paper PMC7556523

# Tested on: Sporothrix brasiliensis CBS 133006
# assayText: growth inhibition relative to untreated control; higher = more growth inhibition (more antifungal activity), active = 80 or more; extreme values may be limits of the assay
# conditionLabel: 1 µM; 48 h
Mark YES for reported growth inhibition of 10% or greater; mark NO for anything smaller.

molecule | testTarget | labelValue
CCCCc1ccc(NC(=O)Nc2ccc(O[C@H]3CCCC[C@@H]3N(C)c3ccccc3)c(F)c2)cc1 | Sporothrix brasiliensis CBS 133006 | NO
Cc1ccccc1C(=O)N1N=C(Nc2ccccc2)SC1(C)C | Sporothrix brasiliensis CBS 133006 | YES
N#Cc1ccc(-c2cnc(N)c(-c3ccc(C(N)=O)cc3)n2)cc1 | Sporothrix brasiliensis CBS 133006 | NO
Clc1ccc(CN2CCN(C3=NCCN3)CC2)cc1Cl | Sporothrix brasiliensis CBS 133006 | YES
COc1ccc(-c2nn(C(C)C)c3ncnc(N)c23)cc1OC | Sporothrix brasiliensis CBS 133006 | NO
O=C(C1CCCCC1)N1CC(=O)N2CCc3ccccc3C2C1 (stereo unspecified) | Sporothrix brasiliensis CBS 133006 | NO
